Let's look at some compounds and their measured IC50.
- System: HeLa S3 cells
- experimental protocol: HeLa S3 Cell Growth Inhibition Test
- Assay type: cell-based
- condition label: Homo sapiens, HeLa S3, 72 h, HeLa S3; 72 hours incubation; Neutral Red; read-out: IC50, HeLa S3 cell growth inhibition
Numbers only here, please. The scale is nM.

| compound | assay result |
| --- | --- |
| CC1=CC(OC2CCCCO2)C(=O)C=CC=Cc2csc(n2)C(C)N2C(=O)CC(C(C)(O)C(=O)SCOC(=O)C(C)(C)NC(=O)OCc3ccccc3)(CC1)[S+]2[O-] (single isomer, unassigned) | 39 |
| CC1=C(CSC(=O)C(C)(O)C23CC/C(C)=C/C(O)C(=O)/C=C/C=C\c4csc(n4)C(C)N(C(=O)C2)[S+]3[O-])C(=O)OC2(CCOCC2)O1 (centres unmarked) | 960 |
| CC1=C(CSC(=O)C(C)(O)C23CC/C(C)=C/C(OC4CCCCO4)C(=O)/C=C/C=C\c4csc(n4)C(C)N(C(=O)C2)[S+]3[O-])C(=O)OC(C)(C)O1 (centres unmarked) | 600 |
| CC(=O)Oc1ccc(C(=O)OCSC(=O)C(C)(O)C23CCC(C)=CC(O)C(=O)C=CC=Cc4csc(n4)C(C)N(C(=O)C2)[S+]3[O-])cc1 (centres unmarked) | 15 |

Moving on to the next compound.
Record COCCOCC(=O)OCc1oc(=O)oc1CSC(=O)C(C)(O)C12CC/C(C)=C/C(O)C(=O)/C=C/C=C\c3csc(n3)C(C)N(C(=O)C1)[S+]2[O-] (centres unmarked) , field IC50: 87
